- subject_of_test: Insulin-degrading enzyme (Homo sapiens, UniProt P14735)
- Sequence (P14735 whole entry): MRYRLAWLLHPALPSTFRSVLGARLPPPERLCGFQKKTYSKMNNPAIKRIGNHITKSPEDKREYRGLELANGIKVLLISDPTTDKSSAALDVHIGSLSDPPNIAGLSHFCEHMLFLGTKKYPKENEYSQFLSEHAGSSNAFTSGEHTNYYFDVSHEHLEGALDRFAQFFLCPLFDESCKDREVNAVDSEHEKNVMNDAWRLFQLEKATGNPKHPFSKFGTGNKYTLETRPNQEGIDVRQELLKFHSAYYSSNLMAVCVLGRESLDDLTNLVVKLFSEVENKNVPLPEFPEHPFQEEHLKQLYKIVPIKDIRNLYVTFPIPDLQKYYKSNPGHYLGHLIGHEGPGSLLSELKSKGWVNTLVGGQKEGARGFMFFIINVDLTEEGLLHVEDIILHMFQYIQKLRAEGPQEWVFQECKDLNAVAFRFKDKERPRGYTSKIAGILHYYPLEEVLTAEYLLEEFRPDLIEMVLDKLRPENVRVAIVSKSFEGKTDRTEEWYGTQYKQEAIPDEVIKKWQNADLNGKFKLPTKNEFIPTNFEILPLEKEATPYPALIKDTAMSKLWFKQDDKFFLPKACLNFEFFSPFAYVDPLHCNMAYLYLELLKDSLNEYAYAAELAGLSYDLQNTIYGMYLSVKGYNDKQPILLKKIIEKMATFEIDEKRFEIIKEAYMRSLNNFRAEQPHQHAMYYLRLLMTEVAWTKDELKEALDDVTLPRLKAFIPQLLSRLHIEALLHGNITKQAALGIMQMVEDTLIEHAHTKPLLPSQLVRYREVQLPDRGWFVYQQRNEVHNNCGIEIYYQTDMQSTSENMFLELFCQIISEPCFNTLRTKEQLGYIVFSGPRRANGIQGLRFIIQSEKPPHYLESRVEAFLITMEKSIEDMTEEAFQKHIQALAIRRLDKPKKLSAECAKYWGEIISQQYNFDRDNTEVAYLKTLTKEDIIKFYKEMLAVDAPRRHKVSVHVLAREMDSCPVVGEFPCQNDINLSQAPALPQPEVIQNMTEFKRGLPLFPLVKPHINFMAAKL
- assay_info: activators of endogenous IDE in HEK cells, dose response, cell-based, fluorescence polarization (AID 588439)
- Format: functional
Active and inactive are the calls of the source.
Pick one and only one: y for active, n for inactive

Hi team, can someone confirm the assay call for `CCOC(=O)/C=C/CN(C(=O)OC(C)(C)C)S(=O)(=O)N1CC=CC1` ?
n

Would you mind telling me which call this test gave `COC(=O)C1=C(C)N(Cc2ccccc2)C(NCc2cccc(Cl)c2)=N[C@H]1c1cccc(F)c1` ?
n

Kindly provide the recorded test outcome for the following molecule: `CC1(C)C=Cc2c(ccc3c2OC[C@H](c2ccc(O)cc2O)C3)O1`
n

Fill in: this test's call for `O=C(O)CCCC[C@@H]1SC[C@@H]2NC(=O)N[C@@H]21` is ___
y

* * *

What AC50 was measured for each of the following?
- assay_info: ZM109 Env clade C HIV-1 fusion inhibitors, dose response, HeLa effector, CEM target cells, luciferase, cherry-pick (AID 652058)
- Assay type: functional, cell-based
Calls of active or inactive are those of the source.

Given the molecule `COc1ccc(CCN(Cc2cccs2)S(=O)(=O)c2ccc(-n3cnnn3)cc2)cc1OC` , write its reported AC50.
20.3 µM (active)

Look up and state reported AC50 for `COc1ccc(NC(=O)Nc2ccc3c(c2)C(=O)N([C@H](C)CO)C[C@H](C)[C@H](CN(C)S(=O)(=O)c2ccc(F)cc2)O3)cc1`
16.6 µM (active)

Provide AC50 value for the following molecule: `Cc1noc(C)c1S(=O)(=O)Nc1cccc2c1O[C@H](CN(C)Cc1ccc(C(F)(F)F)cc1)[C@H](C)CN([C@H](C)CO)C2=O`
0.935 µM (active)

Give a short answer stating reported AC50 for CC(=O)Nc1ccc(N(CC(O)Cn2c3ccccc3c3ccccc32)S(=O)(=O)c2ccc(C)cc2)cc1 (centres undefined) .
0.558 µM (active)

* * *

- subject_of_test: UniProtKB P63073
- Sequence (P63073 whole entry): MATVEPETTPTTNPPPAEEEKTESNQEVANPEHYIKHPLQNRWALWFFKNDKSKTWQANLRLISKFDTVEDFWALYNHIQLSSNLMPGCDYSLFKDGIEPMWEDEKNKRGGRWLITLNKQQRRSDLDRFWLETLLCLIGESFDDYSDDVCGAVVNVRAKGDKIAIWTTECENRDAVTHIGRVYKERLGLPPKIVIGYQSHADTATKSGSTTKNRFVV
- assay_info: eIF4E–eIF4G protein interaction inhibitors, dose response, biochemical, TR-FRET (AID 855);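 further: potency for disrupting eIF4E binding to eIF4GI seen as loss of FRET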
- Type: functional
Active and inactive are the calls of the source.
Could you please pick one outcome from this set? label 1 (active), label 0 (inactive)

Hey, what did the test say about `COc1ccc(S(=O)(=O)N2CCC(C(=O)NCc3cccc(OC)c3)CC2)cc1` ?
label 0

State the result this test recorded for `O=C(CSc1nc(-c2ccccc2)nc2c1Cc1ccccc1O2)Nc1ccc(C(=O)O)cc1` .
label 1

Tell me the assay call for COc1ccc(CNC2=NC(=O)CC(C(=O)Nc3ccc(F)cc3)S2)cc1 (centres undefined) please.
label 0

Recorded call for `CSc1ccccc1NC(=O)c1ccccc1C` ?
label 0

* * *

Exercise: state measured Ki for each of the molecules provided.
- subject_of_test: Aurora kinase B (Homo sapiens)
- Sequence (Q96GD4 whole entry): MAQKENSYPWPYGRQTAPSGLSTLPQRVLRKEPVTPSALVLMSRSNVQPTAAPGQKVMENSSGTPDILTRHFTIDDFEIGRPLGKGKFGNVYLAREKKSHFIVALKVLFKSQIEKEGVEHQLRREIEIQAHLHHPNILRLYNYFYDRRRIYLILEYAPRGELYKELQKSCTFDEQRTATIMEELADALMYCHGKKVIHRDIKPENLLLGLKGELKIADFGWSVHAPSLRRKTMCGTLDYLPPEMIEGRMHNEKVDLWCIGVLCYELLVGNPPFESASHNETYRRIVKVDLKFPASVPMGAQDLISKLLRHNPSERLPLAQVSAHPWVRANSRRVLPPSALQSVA
- Type: functional
The source made the active and inactive calls.

Check the records and state Ki for NC(COc1cncc(-c2ccc3c(c2)C(=Cc2ccco2)C(=O)N3)c1)Cc1c[nH]c2ccccc12 (centres undefined)
200 nM (active)

# return recorded Ki for entry `Cc1ccc(-n2nc(C(C)(C)C)cc2NC(=O)Nc2ccc(OCCN3CCOCC3)c3ccccc23)cc1`
> 5010 nM (inactive)

# return recorded Ki for entry `NC(=O)c1cc(-c2ccnc(N)n2)[nH]c1-c1ccc(Cl)cc1Cl`
631 nM (active)

Please give the documented Ki of `c1cncc(Nc2ncc(-c3ccncn3)c(-c3ccco3)n2)c1`
2510 nM (active)

* * *

- subject_of_test: UniProt P38532
- Sequence (P38532 whole entry): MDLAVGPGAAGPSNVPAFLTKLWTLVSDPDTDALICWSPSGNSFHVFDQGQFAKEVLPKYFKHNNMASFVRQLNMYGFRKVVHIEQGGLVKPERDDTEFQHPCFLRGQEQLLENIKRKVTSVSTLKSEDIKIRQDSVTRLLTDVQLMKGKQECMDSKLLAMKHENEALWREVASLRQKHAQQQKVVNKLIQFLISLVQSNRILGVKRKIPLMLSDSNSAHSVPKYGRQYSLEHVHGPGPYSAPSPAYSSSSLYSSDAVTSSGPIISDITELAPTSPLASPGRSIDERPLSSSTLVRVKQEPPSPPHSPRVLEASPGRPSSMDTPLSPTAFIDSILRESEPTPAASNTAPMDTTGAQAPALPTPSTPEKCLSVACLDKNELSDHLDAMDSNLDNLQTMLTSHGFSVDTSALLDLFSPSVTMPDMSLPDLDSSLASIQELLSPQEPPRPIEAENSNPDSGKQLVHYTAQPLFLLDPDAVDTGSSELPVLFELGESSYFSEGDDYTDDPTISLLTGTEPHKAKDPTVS
- assay_info: HSF1 potentiators in luciferase reporter cells, confirmation, cell-based, NIH3T3, luminescence, dose retest (AID 435004);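 further: stress induced by proteasome inhibitor MG132 added 30 min after compound; luciferase reporter driven by HSF1 response element in NIH3T3 cells; actives raise luminescence as potentiators of the MG132 stress response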
- Type: functional
The source made the active and inactive calls.
A correct response names exactly one class from active, inactive

Check the results log: what was the call for `COc1ccc(S(=O)(=O)n2nc(OC(=O)c3ccccc3Br)cc2N)cc1` ?
active

For this molecule, state the assay outcome: COc1ccc(CN(CC2CCC(C(=O)O)CC2)C(S)=Nc2cc(Cl)ccc2OC)cc1 (stereo not drawn)
inactive

So what was the verdict on `Cc1cc(O)nc(N/N=C/c2ccc(O)c(O)c2)n1` in this test?
inactive

* * *

So I've got a bunch of molecules here, and I need their EC50 values.
- assay_info: cytotoxicity toward DRD oncogenic fibroblasts, dose response, cell-based, non-viral oncogenic, luminescence (AID 1934)
- Assay type: functional
- experimental_conditions: Homo sapiens
The source made the active and inactive calls.

Look up and report measured EC50 for this entry: `O=C(c1ccc2c3n(nc2c1)-c1ccccc1CO3)N1CCOCC1`
5.29 µM (active)

For `Cc1ccc(/C=N/NC(=O)c2csc3c2CCCC3)cc1` , write its EC50.
1.9 µM (active)

Given `COc1ccc(N2CCN(CCCn3c(=S)[nH]c4ncccc4c3=O)CC2)cc1` , respond with its EC50.
58.9 µM (active)

# return recorded EC50 for entry `CNC(=O)COC(=O)c1ccccc1C(=O)c1ccc(Cl)c([N+](=O)[O-])c1`
10 µM (inconclusive)

// Input: `CCOc1ncccc1C(=O)N1CCN(c2cccc(C)c2C)CC1` . Output its EC50 only.
0.458 µM (active)

* * *

- assay_info: inhibitors of intracellular T. cruzi replication, confirmation, NIH3T3 host cells, beta-gal luminescence (AID 2044);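 further: intracellular parasites grown in NIH/3T3 mouse fibroblasts as host cells; luminescent beta-galactosidase reporter signal from transgenic T. cruzi replicating inside host cells; inhibitors lower the luminescence signal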
- Format: functional, cell-based
Calls of active or inactive are those of the source.
recorded_endpoint: EC50

Please report the measured EC50 for `CCOC(=O)Cc1csc(NC(=O)CSc2nnc(-c3ccc(OC)cc3)n2C)n1`
> 60000 nM (not active)

Tell me its EC50 given `Cc1cc(NC2CCCCC2)nc(NCc2ccccc2)n1` as the entry.
1610 nM (active)

Using known records, supply EC50 for `O=[N+]([O-])c1ccc(Sc2nccn2Cc2ccccc2)c([N+](=O)[O-])c1`
3060 nM (active)

Provide one value: measured EC50 of CCCC1COC(Cn2cncn2)(c2ccc(Cl)cc2Cl)O1 (configuration not stated)
< 100 nM (active)

Supply reported EC50 belonging to this compound: `CCN(CC)S(=O)(=O)c1ccc(N2CCN(c3cccc(OC)c3)CC2)c([N+](=O)[O-])c1`
1300 nM (active)

Supply recorded EC50 for COc1ccc(C(=O)C2CCCN(Cc3ccc(C#CCCO)cc3)C2)cc1F (configuration not stated) here.
475 nM (active)

Return EC50 for the following compound: `O=C(Nc1ccc(-c2csc(Nc3cccc(C(F)(F)F)c3)n2)cc1)c1ccccc1`
859 nM (active)

* * *

- assay_info: HepG2 cell cytotoxicity, dose response, cytotoxicity control for Shn3 inhibitor project, CellTiter-Glo, cherry-picked (AID 624134)
- Type: functional, cell-based
Activity calls are given as the source filed them.
Your answer must be one of the following: y = active, n = inactive

# lookup: test call for CC(O)(c1ccncc1)c1nc(-c2cccc(C(F)(F)F)c2)cs1 (centres undefined)
n

Dear colleague, could you share the recorded outcome for `CN(C)C1=NC[C@H](Cc2ccccc2)N1CCCC1CCCCC1` when you have a moment?
y

I'd appreciate the recorded outcome for `COc1ccc(CNc2ncnc3ccccc23)cc1` from this test.
y

Could you please tell me the result logged for O=C1C(F)=CC(COC(c2ccccc2)(c2ccccc2)c2ccccc2)OC1n1cc(F)c(=O)[nH]c1=O (centres undefined) in this assay?
y

* * *

- subject_of_test: Zinc finger protein mex-5 (Caenorhabditis elegans, UniProt Q9XUB2)
- Sequence (Q9XUB2 whole entry): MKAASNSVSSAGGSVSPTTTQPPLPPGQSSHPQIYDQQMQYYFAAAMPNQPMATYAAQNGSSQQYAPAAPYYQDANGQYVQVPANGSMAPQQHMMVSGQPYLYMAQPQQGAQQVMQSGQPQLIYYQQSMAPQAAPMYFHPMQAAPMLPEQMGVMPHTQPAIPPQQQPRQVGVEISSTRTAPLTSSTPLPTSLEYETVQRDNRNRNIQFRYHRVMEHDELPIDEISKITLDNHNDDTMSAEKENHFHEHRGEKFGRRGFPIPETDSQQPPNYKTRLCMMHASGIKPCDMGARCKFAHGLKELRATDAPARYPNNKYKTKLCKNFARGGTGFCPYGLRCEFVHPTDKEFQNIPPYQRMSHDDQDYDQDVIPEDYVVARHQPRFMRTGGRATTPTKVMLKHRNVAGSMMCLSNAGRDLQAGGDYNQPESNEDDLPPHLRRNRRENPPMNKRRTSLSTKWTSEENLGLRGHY
- assay_info: MEX-5/TCR-2 RNA interaction inhibitors, dose response, biochemical, C. elegans, fluorescence polarization (AID 1960)
The source made the active and inactive calls.
recorded_endpoint: EC50

State its EC50 for this compound: `Cc1cc(=O)nc2c3ccccc3n(CC(=O)Nc3ccccc3Br)n12`
103 µM (active)

# return recorded EC50 for input COc1cc(C2NC(S)=NC(C)=C2C(=O)OC(C)C)ccc1OC(C)C (stereo unspecified)
> 300 µM (not active)

Supply measured EC50 of `Cc1cc(O)nc(N/N=C/c2ccc(O)c(O)c2)n1` in your reply.
125 µM (active)

Given the compound `O=C1NC(=O)N(c2ccc(Br)cc2)C(=O)/C1=C/NCCN1CCCCC1` , write its reported EC50.
106 µM (active)

Provide measured EC50 value, entry: `CCCCN(C(=O)c1ccc([N+](=O)[O-])o1)c1c(N)n(CC(C)C)c(=O)[nH]c1=O`
16 µM (active)

Provide EC50 value for the following compound: `O=C1c2ccccc2S(=O)(=O)c2cc(N3CCC(C(=O)N4CCCCC4)CC3)ccc21`
> 300 µM (not active)

These entries and their values trace back to ChEMBL document CHEMBL1201862.
